Taken from patent US5112382A.

# Test system: Phytophthora capsici
# procedure-text: In-vitro plant fungicide test, PHY
# Type: cell-based
# protocol-conditions: rate 25 PPM, read-out: % Control

>  <smi>
COC(=O)N(CC#CI)N=Cc1ccc(Cl)cc1

>  <unit-string>
%

>  <inhibition of growth at 25 ppm>
50

$$$$
>  <smi>
COC(=O)N(CC#CBr)N=Cc1ccc(Cl)cc1

>  <unit-string>
%

>  <inhibition of growth at 25 ppm>
0

$$$$
>  <smi>
CCOC(=O)N(CC#CBr)N=Cc1ccc(Cl)c(Cl)c1

>  <unit-string>
%

>  <inhibition of growth at 25 ppm>
0

$$$$
>  <smi>
COC(=O)N(CC#CI)N=Cc1ccccc1

>  <unit-string>
%

>  <inhibition of growth at 25 ppm>
75

$$$$
>  <smi>
O=CN(CC#CBr)N=Cc1ccc(Cl)cc1

>  <unit-string>
%

>  <inhibition of growth at 25 ppm>
75

$$$$
>  <smi>
O=C(c1ccccc1)N(CC#CI)N=Cc1ccccc1

>  <unit-string>
%

>  <inhibition of growth at 25 ppm>
100

$$$$
>  <smi>
COC(=O)N(CC#CBr)N=Cc1cc(Cl)cc(Cl)c1

>  <unit-string>
%

>  <inhibition of growth at 25 ppm>
0

$$$$
>  <smi>
COC(=O)N(CC#CBr)N=Cc1ccc(F)cc1

>  <unit-string>
%

>  <inhibition of growth at 25 ppm>
0

$$$$
>  <smi>
COC(=O)N(CC#CI)N=Cc1cc(Cl)cc(Cl)c1

>  <unit-string>
%

>  <inhibition of growth at 25 ppm>
0

$$$$
>  <smi>
CCOC(=O)N(CC#CI)N=Cc1ccc(Cl)c(Cl)c1

>  <unit-string>
%

>  <inhibition of growth at 25 ppm>
0

$$$$

###

Reported MIC values are given for each entry in this list.
# System: Aureobasidium pullulans

>  <compound>
COC(=O)N(CC#CI)N=Cc1ccc([N+](=O)[O-])o1 [Compound 8]

>  <MIC>
< 4 µg/mL

$$$$
>  <compound>
COC(=O)N(CC#CI)N=Cc1ccc(Cl)c(Cl)c1 [Compound 11]

>  <MIC>
< 4 µg/mL

$$$$
>  <compound>
COC(=O)N(CC#CI)N=Cc1ccc(Cl)cc1 [Compound 5]

>  <MIC>
< 4 µg/mL

$$$$
>  <compound>
COC(=O)N(CC#CI)N=Cc1ccc(F)cc1 [Compound 10]

>  <MIC>
< 4 µg/mL

$$$$
>  <compound>
CCOC(=O)N(CC#CBr)N=Cc1ccc(Cl)c(Cl)c1 [Compound 14]

>  <MIC>
> 100 µg/mL

$$$$
>  <compound>
COC(=O)N(CC#CI)N=Cc1ccccc1 [Compound 3]

>  <MIC>
< 4 µg/mL

$$$$
>  <compound>
COC(=O)N(CC#CI)N=Cc1cc(Cl)cc(Cl)c1 [Compound 15]

>  <MIC>
> 100 µg/mL

$$$$
>  <compound>
CCOC(=O)N(CC#CI)N=Cc1ccc(Cl)c(Cl)c1 [Compound 13]

>  <MIC>
> 100 µg/mL

$$$$
>  <compound>
COC(=O)N(CC#CBr)N=Cc1cc(Cl)cc(Cl)c1 [Compound 16]

>  <MIC>
> 100 µg/mL

$$$$
